Provide the recorded IFI for the entries that follow.
Experiment: GSK_TCMDC: Inhibition Frequency Index (IFI). The number of non-kinase HTS assays where a compound showed > 50 % inhibition, expressed as a percentage of the number of such assays in which the compound was tested
Type: functional
The full ranking holds about 13,000 compounds; the median of “IFI” is about 4, and the highest 2% start at about 17. The sample holds the highest values, similar compounds and a random draw of the others, so the mix is not that of the screen.

State recorded IFI for all listed compounds.
1. COc1ccc(S(=O)(=O)Nc2ccc(C(=O)NCc3ccc(C(F)(F)F)cc3)cc2)cc1N1CCN(CC2CC2)CC1
2. COc1cc2nc(N3CCC(CNCc4ccc(-c5ccc(C(F)(F)F)cc5)cc4)CC3)nc(N)c2cc1OC
3. CCOC(=O)c1ccc(-c2cnc(N)c(-c3nc4cccc(C)c4[nH]3)c2)cc1
4. COc1ccc(NS(=O)(=O)c2cccc(C(=O)Nc3ccc(C(F)(F)F)cc3)c2)cc1N1CCN(CC(C)C)CC1
5. COc1cc2ccccc2cc1CCNCCCCNCCc1cc2ccccc2cc1OC
6. CCCCOc1cc(OC)c2ccccc2c1CCNCCCCNCCc1c(OCCCC)cc(OC)c2ccccc12
7. CCc1c(CCNCCCCCCNCCc2ccc(OC)c(OC)c2CC)ccc(OC)c1OC
8. COc1cc2ccccc2c(OC)c1CCNCCCCNCCc1c(OC)cc2ccccc2c1OC

Response:
1. 20%
2. 17.1%
3. 0.69%
4. 2.84%
5. 14.8%
6. 19.1%
7. 6.47%
8. 14.5%

State recorded IFI for all listed compounds.
1. COc1c(OC)c(OC)c2ccccc2c1CCNCCCCNCCc1c(OC)c(OC)c(OC)c2ccccc12
2. Nc1nccc2ccc(-c3ccc(Oc4ccccc4)cc3)cc12

Response:
1: 18.3%; 2: 20.7%

====

So I've got a bunch of compounds here, and I need their IFI values.
Test: GSK_TCMDC: Inhibition Frequency Index (IFI). The number of non-kinase HTS assays where a compound showed > 50 % inhibition, expressed as a percentage of the number of such assays in which the compound was tested
Type: functional
In all, about 13,000 compounds were measured (“IFI”: median about 4, highest 2% from about 17 on). This is one part of a sample in which the highest values are shown more often than they occur.
Numbers only, in %.

Field: example entries. Status: answers known.
COMPOUND: O=[N+]([O-])c1cnc(Nc2ccccc2O)nc1Nc1ccccc1O
IFI (%): 19.2
//
COMPOUND: CC(C)c1ccc(CN2CCC(CNC(=O)c3cc(-c4cccc(F)c4)cs3)C2)cc1 (stereo not given)
IFI (%): 14.3
//
COMPOUND: CC(C)Cn1cc(C2CCN(CCN3CCC(CNC(=O)c4ccc(-c5ccc(C(F)(F)F)cc5)cc4)CC3)CC2)c2ccccc21
IFI (%): 9.17
//
COMPOUND: COc1ccccc1CCNc1ncnc2c1[nH]c1ccc(F)cc12
IFI (%): 20.5
//
COMPOUND: Cc1cccc(-c2nn(-c3ccccc3)c3[nH]c(=O)c(CN4CCSCC4)cc23)c1
IFI (%): 1.82

Return reported IFI values for all items listed beneath this line.
1. COc1cc2nc(-c3ccc(Br)cc3)cc(N)c2cc1OC
2. CC(C)(C)c1ccc(NC(=O)c2cccc(CN3CCCN(Cc4cccc(Cl)c4)CC3)c2)cc1
3. O=C(Cc1cccc(O)c1)Nc1ccc(-c2cccc(-c3nc4cc(C(F)(F)F)ccc4[nH]3)c2)cc1
4. COc1cc(CNCCCCCCNCc2cc(OC)cc3ccccc23)c2ccccc2c1
5. Cc1ccc2[nH]c3c(NCCN(C)C)ncnc3c2c1
6. CN(C)CC(O)COc1ccc(Nc2ncc([N+](=O)[O-])c(Nc3ccccc3O)n2)cc1 (stereo not given)
7. CCOc1cc(CNCCCCCCNCc2cc(OCC)c(OCC)c3ccccc23)c2ccccc2c1OCC
8. COc1c(CNCCCCCCNCc2cc(Cl)c3ccccc3c2OC)cc(Cl)c2ccccc12

Response:
1. 11.1
2. 7.86
3. 8.93
4. 10.1
5. 0
6. 6.21
7. 18.8
8. 19.4

Provide IFI for all items below, preserving their order.
1. CCOc1cc(OCC)c2ccccc2c1CNCCCCCCNCc1c(OCC)cc(OCC)c2ccccc12
2. NS(=O)(=O)c1cccc(-c2ccc3nccc(-c4cccc(S(N)(=O)=O)c4)c3c2)c1

Response:
1: 16; 2: 0

====

Test: GSK_TCMDC: Inhibition Frequency Index (IFI). The number of non-kinase HTS assays where a compound showed > 50 % inhibition, expressed as a percentage of the number of such assays in which the compound was tested
Assay type: functional
Whole data set: some 13,000 compounds, median “IFI” near 4, cut for the highest 2% near 17. What follows is part of a selection rich in the highest values, with near analogues and random picks from the rest.
IFI less than 7% is Y; IFI greater than or equal to 7% is N.

Worked set:
MOLECULE: COc1cccc(-c2ccc(NC(=O)C3CCCN(Cc4cccc(OC)c4O)C3)cc2)c1 (stereo not given)
LABEL_CLASS: Y
//
MOLECULE: COc1ccccc1-n1ccnc1SCC(=O)Nc1cccc(C(F)(F)F)c1
LABEL_CLASS: Y

Prompt: Confirm or reject: IFI of CCN(CC)CCOc1ccc(N(Cc2ccc(C(C)(C)C)cc2)C(=O)c2ccc(Cc3ccccc3)cc2)cc1OC lies strictly below 7%
Response: Y

Prompt: Also COc1ccc(CCNC(C)Cc2ccc(C(=O)Nc3ccc(CC(C)NCCc4cccc(Cl)c4)cc3)cc2)cc1 (stereo not given) ?
Response: N

Prompt: How about CCCCCCCNCc1c(O)ccc2c(CNCCCCCCC)c(O)ccc12 ?
Response: N

Prompt: Further, for O=C(NCCCCN1CCC(c2ccc3c(c2OCCCO)CCCC3)CC1)c1ccc(-c2ccc(C(F)(F)F)cc2)c(CO)c1 ?
Response: N

Prompt: Repeat for the following molecule: Cc1ccc2c(=NN=Cc3cccc(F)c3)cc(C)[nH]c2c1
Response: Y

Prompt: Entry Cc1ccc2[nH]c(NC#N)nc2c1 please
Response: Y

Prompt: Further, for Fc1ccc2[nH]c(-c3cccc(-c4cccc(CN5CCN(c6ccncc6)CC5)c4)c3)nc2c1 ?
Response: N

Prompt: Repeat with Cc1cc(=O)c(-c2ccc(Oc3cccc(OC(F)(F)F)c3)cc2)c(C)[nH]1
Response: Y

Prompt: Also O=[N+]([O-])c1ccc2nccnc2c1 ?
Response: Y

Prompt: Now this one: CN(c1ccccc1)c1ccnc(NC(=N)Nc2ccc(Cl)cc2)n1
Response: N

Prompt: Same thing, different molecule: CC1(C)N=C(NC(=O)Nc2ccc([N+](=O)[O-])cc2)N=C(N)N1OCc1cccc2ccccc12
Response: Y

Prompt: Next entry: CCN(CC)Cc1cccc(-c2cc3c(-c4ccc(C(=O)O)c(C(C)C)c4)ccnc3[nH]2)c1OC
Response: Y

====

Test: GSK_TCMDC: Inhibition Frequency Index (IFI). The number of non-kinase HTS assays where a compound showed > 50 % inhibition, expressed as a percentage of the number of such assays in which the compound was tested
Assay type: functional
In all, about 13,000 compounds were measured (“IFI”: median about 4, highest 2% from about 17 on). The sample as a whole holds a higher share of the highest values than the screen did.
Just so you know, the groups by IFI go like this: lowest = under 6%, middle = from 6% up to 10%, highest = 10% and over

COMPOUND: COc1ccc(CC2(c3ccc(F)cc3)N=C(N)N(CCCc3ccc4c(c3)OCO4)C2=O)cc1 (stereo unspecified)
LABEL_CLASS: middle

COMPOUND: Cc1cc(N[C@@H](Cc2ccccc2)C(=O)NCc2cccc(F)c2)nc(NCCc2ccc(F)cc2)n1
LABEL_CLASS: middle

COMPOUND: OC(CNc1ccnc(Nc2cccc(Cl)c2)n1)c1ccc(C(F)(F)F)cc1 (stereo unspecified)
LABEL_CLASS: highest

COMPOUND: CC(Sc1nnc(-c2cccs2)[nH]1)C(=O)c1c[nH]c2ccccc12 (stereo unspecified)
LABEL_CLASS: lowest

Prompt: Category of Cc1cc(N[C@@H](Cc2ccccc2)C(=O)NCc2cccc(F)c2)nc(NCCOc2ccccc2)n1 , please.
Response: middle

Prompt: And Cc1cc(N[C@@H](Cc2ccccc2)C(=O)NCc2cccc(F)c2)nc(Nc2ccccc2)n1 ?
Response: lowest

Prompt: Same read-out for Cc1cc(N[C@@H](Cc2ccccc2)C(=O)NCc2cccc(F)c2)nc(NCC2CCCCC2)n1 ?
Response: highest

Prompt: And for Cn1nccc1C(=O)NCCNCc1ccc(-c2ccc(-c3nc4cc(F)ccc4[nH]3)cc2)cc1 ?
Response: middle

Prompt: Cc1[nH]c(C)c(-c2csc3ccccc23)c(=O)c1Cl , same question.
Response: lowest

Prompt: How about this compound: CCN(CC)CCN(Cc1ccc(-c2ccc(C(F)(F)F)cc2)cc1)C(=O)Cn1c(CCc2cc(F)c(F)c(F)c2)nc(=O)c2ccccc21
Response: middle

Prompt: Then CCn1c(-c2nonc2N)nc2c(-c3ccc(CO)o3)ncc(OCCCN)c21 ?
Response: highest

Prompt: What about Cc1cc(N[C@@H](Cc2ccccc2)C(=O)NCc2cccc(F)c2)nc(NCc2ccccc2C)n1 ?
Response: lowest

Prompt: Proceed to OC(CNc1ccnc(Nc2cccc(Cl)c2)n1)c1ccccc1C(F)(F)F (stereo unspecified)
Response: highest

Prompt: Then what about the compound c1cc(CN2CCC(CCN3CCCCC3)CC2)cc(-c2cccc(-c3nc4ccccc4[nH]3)c2)c1 ?
Response: lowest

Prompt: # repeat for COc1ccc(CC2(c3ccc(F)cc3)N=C(N)N(CCCc3ccc(F)c(F)c3)C2=O)cc1 (stereo unspecified)
Response: highest

Prompt: Now try NC(=O)c1cccc(C(=O)Nc2cccc(-c3ccc(-c4nc5cc(C(F)(F)F)ccc5[nH]4)cc3)c2)c1 .
Response: middle

Prompt: Then what about the compound COc1cc2nc(NCc3nc4ccccc4[nH]3)nc(N)c2cc1OC ?
Response: lowest

Prompt: Please give the result for COc1ccc(CC2(c3ccc(F)cc3)N=C(N)N(CCCc3ccccc3)C2=O)cc1 (stereo unspecified) too.
Response: highest

Prompt: Here is the next compound: COc1ccc(CC(Cc2ccc(OC)cc2)NCC(O)c2cccc(Cl)c2)cc1 (stereo unspecified)
Response: lowest

Prompt: Query CC1CC1C(=O)NC1CCN(CC2(c3ccccc3)CCCCC2)CC1 (stereo unspecified) next
Response: middle

Prompt: How about Cc1cc(C)c2ncc(C(=O)O)c(O)c2c1 ?
Response: lowest

Prompt: Next entry: Cc1cc(N[C@@H](Cc2ccccc2)C(=O)NCc2cccc(F)c2)nc(NCCCOC(C)C)n1
Response: highest
